Biological target: TRPM8 (Rattus norvegicus)
Construct: from tissue; host or cells: whole animal, female SD rats (in vivo)
Sequence (Q8R455 whole entry): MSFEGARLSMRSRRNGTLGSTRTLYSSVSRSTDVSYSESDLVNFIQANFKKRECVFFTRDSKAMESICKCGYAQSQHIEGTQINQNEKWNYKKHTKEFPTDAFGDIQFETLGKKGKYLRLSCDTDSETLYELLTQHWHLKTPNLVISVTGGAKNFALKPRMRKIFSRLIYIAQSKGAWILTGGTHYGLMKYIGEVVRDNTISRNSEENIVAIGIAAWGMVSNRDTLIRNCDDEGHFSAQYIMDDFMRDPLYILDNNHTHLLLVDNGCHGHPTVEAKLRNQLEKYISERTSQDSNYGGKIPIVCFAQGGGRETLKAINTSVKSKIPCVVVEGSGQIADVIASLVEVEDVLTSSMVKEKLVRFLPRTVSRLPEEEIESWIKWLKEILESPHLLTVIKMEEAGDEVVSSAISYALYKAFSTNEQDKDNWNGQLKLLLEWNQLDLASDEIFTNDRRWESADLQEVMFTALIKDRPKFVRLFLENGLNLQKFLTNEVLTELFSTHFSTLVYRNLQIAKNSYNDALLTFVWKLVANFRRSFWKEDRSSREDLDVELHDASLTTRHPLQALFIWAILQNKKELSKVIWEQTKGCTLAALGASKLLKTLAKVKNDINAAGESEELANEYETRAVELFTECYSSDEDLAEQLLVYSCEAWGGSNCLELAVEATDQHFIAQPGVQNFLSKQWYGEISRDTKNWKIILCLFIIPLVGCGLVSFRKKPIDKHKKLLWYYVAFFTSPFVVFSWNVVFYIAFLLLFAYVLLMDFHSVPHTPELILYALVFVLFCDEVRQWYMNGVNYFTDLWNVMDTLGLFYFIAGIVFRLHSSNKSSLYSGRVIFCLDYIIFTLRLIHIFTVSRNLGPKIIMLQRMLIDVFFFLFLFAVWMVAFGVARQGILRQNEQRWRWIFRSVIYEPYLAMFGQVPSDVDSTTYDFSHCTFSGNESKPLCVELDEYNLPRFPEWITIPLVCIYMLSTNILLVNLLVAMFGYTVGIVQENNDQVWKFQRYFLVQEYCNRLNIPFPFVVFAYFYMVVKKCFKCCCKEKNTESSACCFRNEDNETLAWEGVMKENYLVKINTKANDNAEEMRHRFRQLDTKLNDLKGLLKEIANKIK
Assay: Confirmation test of inhibitory effects on icilin-induced wet-dog shakes
Format: in vivo
Settings: female SD rats, oral dose 10 mg/kg, icilin 1 mg/kg i.p. 1 hour after dosing, shakes counted for 5 minutes
From the text: Further, TRPM8 inhibitory activity can be evaluated by the efficacy inhibiting the wet-dog shake action which is induced by the administration of Icilin, TRPM8 agonist. Furthermore, an effect on overactive bladder (OAB) can be evaluated by an elongation of micturition interval against overactive bladder induced by acetic acid in accordance with a similar method described in J. Urol., 2001, 166, 1142. Confirmation Test of Inhibitory Effects on Icilin-induced Wet-dog Shakes […]
Each item that follows carries a reported % inhibition of Wet-Dog Shake.
Give your result in % as a bare value.

Sample answers from the record:
>  <CHEMICAL SMILES>
O=C(N[C@@H](CO)Cc1ccccn1)c1c(F)cccc1-c1cc(-c2ccc(F)cc2)[nH]n1

>  <DISPLAY UNIT>
%

>  <% inhibition of Wet-Dog Shake>
100

$$$$
>  <CHEMICAL SMILES>
O=C(N[C@@H](CO)Cc1ccccn1)c1ccccc1-c1cc(-c2ccc(Cl)c(F)c2)[nH]n1

>  <DISPLAY UNIT>
%

>  <% inhibition of Wet-Dog Shake>
86

$$$$

Query molecule follows.
Data request: What measured % inhibition of Wet-Dog Shake goes with `NC(=O)C[C@@H](Cc1ccccc1)NC(=O)c1ccccc1-c1cc(-c2ccc(F)cc2)[nH]n1` ?
Data returned: 59
